System: Sam68 (KHDRBS1)
Test: compounds binding KHDRBS1 protein – biochemical, small-molecule microarray, 635 nm fluorescence, primary screen (AID 1125);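 further: score merges 667 nm channel intensity with signal to noise over triplicate slides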
Conditions: higher = more signal
# maps each entry to its composite z-score
Reply with the value as a number alone.

Below: 2 compounds and their reported composite z-score.
compound=COCCOC(=O)N1C(=O)[C@@]2(c3cc(C#CC4(O)CCCCCC4)ccc31)[C@H](c1ccc(O)cc1)N1[C@H](c3ccccc3)[C@H](c3ccccc3)OC(=O)[C@H]1[C@@H]2C(=O)N1CCc2cc(OC)c(OC)cc2C1 number=0.0544
compound="C=CCC(OC(C)=O)[C@@H]1[C@@H](N(Cc2ccc(-c3ccccc3)cc2)C(=O)c2ccc(C)cc2)c2cc(OCCCO)ccc2N1C(=O)c1ccc2ccccc2n1 (stereo partly drawn)" number=-0.44

Q. Form field: reported composite z-score of O=C1OCC=C[C@H]2OC34C=CCN(c5ccc6ccccc6c5)C(=O)[C@H]3N(CCO)C(=O)[C@@H]4[C@@H]12 (stereo partly drawn)
A. -0.873

Q. State the recorded composite z-score for this entry: CCCNC(=O)[C@@]1(c2ccc([N+](=O)[O-])cc2)CC(=O)N(CC23CC4CC(CC(C4)C2)C3)[C@@H]1c1ccc(CO)cc1I
A. 0.974

Q. Dear colleague, I am looking for the recorded composite z-score of the following compound: COC(=O)c1c(CC[C@@H](CO)NC(=O)Nc2ncn[nH]2)oc(C(=O)Cc2ccccc2)c1C(=O)OC
A. 0.885

Q. Which composite z-score is listed for Cc1ccc(S(=O)(=O)N2CC(C(=O)O)=CCC2c2ccccc2)cc1 (stereo not drawn) ?
A. 0.503

Q. Need composite z-score of CC(C)N1C(=O)c2ccccc2[C@](C)(C(=O)NC2CC2)[C@@H]1c1ccc(CO)cc1 , thanks.
A. 0.424

Q. What value of composite z-score has been reported for the following compound? CC(C)(C)OC(=O)CC[C@@]1(C(N)=O)N=C(c2ccc(OCCCO)cc2)O[C@@H]1c1ccccc1N=[N+]=[N-]
A. 1.07

Q. Looking for the measured composite z-score of CCCC[C@H]1OB(O)C[C@H]2C1=C(COc1ccccc1)C[C@H]1C(=O)N(Cc3ccccc3)C(=O)[C@H]12 , can you help?
A. 0.868

Q. Which composite z-score is listed for COCCCNC(=O)[C@@]1(Sc2ccc(C)cc2)CC(=O)N(Cc2ccccc2)[C@@H]1c1ccc(CO)cc1 ?
A. 0.0145

Q. Data request, read-out composite z-score, for NC(=O)NCC#Cc1ccc2c(c1)[C@]1(C(=O)N2)[C@H](c2ccccc2OCCO)N2[C@H](c3ccccc3)[C@H](c3ccccc3)OC(=O)[C@H]2[C@@H]1C(=O)N1CCCCCCC1
A. 1.29

Q. Consider the compound shown here: NC(=O)[C@]1(Cc2ccccc2)N=C(c2ccc(OCCCO)cc2)O[C@@H]1c1ccccc1 What is its recorded composite z-score?
A. 0.827

Q. Consider the compound shown here: COCCOC(=O)N1C(=O)[C@@]2(c3ccccc31)[C@H](C(=O)N1CCCCCCC1)[C@H]1C(=O)O[C@H](c3ccccc3)[C@H](c3ccccc3)N1[C@@H]2c1ccccc1OCCO What is its recorded composite z-score?
A. 1.29

Q. State the recorded composite z-score for this entry: COCCCNC(=O)[C@@]1(C)c2ccccc2C(=O)N(Cc2ccccc2)[C@H]1c1ccc(CO)cc1
A. 0.203

Q. // query composite z-score value for entry C#C[C@H]1Oc2ccccc2S(=O)(=O)N2CCC[C@@H]12
A. -0.399

Q. Sample COC(=O)[C@@]1(Cc2ccc(OC)cc2)[C@H]2c3cc(C(=O)N4CCCC4)n(CCc4ccccn4)c3C[C@H]2CN1C(=O)c1ccccc1 — what was its composite z-score?
A. -0.724

Q. Would you kindly share the measured composite z-score for O=C1OCCC=C[C@H]2OC34C=CCN(c5ccc6ccccc6c5)C(=O)[C@H]3N(CCCCCCO)C(=O)[C@@H]4C12 (stereo partly drawn) ?
A. 0.264

Q. I would be grateful if you could share the reported composite z-score for Cc1cc(C)c(C(O)C2C=CC3C(=O)NC(=O)C3N2Nc2ccccn2)c(C)c1 (stereo not drawn) .
A. 0.785

Q. Please give the measured composite z-score for this compound: O=C1OCC=C[C@H]2OC34C=CCN(CCN5CCOCC5)C(=O)[C@H]3N(CCCCCCO)C(=O)[C@@H]4[C@@H]12 (stereo partly drawn)
A. 0.274

Q. Please look up its composite z-score: C=CCOC(=O)[C@H]1[C@@H]2C(=O)O[C@@H](c3ccccc3)[C@@H](c3ccccc3)N2[C@@H](c2ccc(OCCOC(=O)[C@@H]3C[C@@H]4C(=O)NCC(=O)N4[C@@H]3c3ccc(O)cc3)cc2)[C@]12C(=O)Nc1ccc(I)cc12
A. 1.3

Q. Reported composite z-score for COc1ccccc1CN1C(=O)c2ccccc2[C@](Cc2ccccc2I)(C(=O)NC2CC2)[C@@H]1c1ccc(CO)cc1 : what is it?
A. 1.32

Q. Quick one: composite z-score for CC(C)OC(=O)C1=CCC(c2cccc(Cl)c2)O1 (stereo not drawn) ?
A. 0.649

Q. Query (compound): CC(C)NC(=O)[C@@]1(c2ccc([N+](=O)[O-])cc2)CC(=O)N(C(C)C)[C@@H]1c1ccc(CO)cc1 ; field requested: composite z-score
A. 0.0001
